The reported numbers originate from patent US11999746B2.

Catalogue of IC50 values
- System: Lp-PLA2 in human plasma (Homo sapiens, UniProt Q13093)
- Construct: from tissue; host or cells: pooled human plasma
- Sequence (Q13093 22-441): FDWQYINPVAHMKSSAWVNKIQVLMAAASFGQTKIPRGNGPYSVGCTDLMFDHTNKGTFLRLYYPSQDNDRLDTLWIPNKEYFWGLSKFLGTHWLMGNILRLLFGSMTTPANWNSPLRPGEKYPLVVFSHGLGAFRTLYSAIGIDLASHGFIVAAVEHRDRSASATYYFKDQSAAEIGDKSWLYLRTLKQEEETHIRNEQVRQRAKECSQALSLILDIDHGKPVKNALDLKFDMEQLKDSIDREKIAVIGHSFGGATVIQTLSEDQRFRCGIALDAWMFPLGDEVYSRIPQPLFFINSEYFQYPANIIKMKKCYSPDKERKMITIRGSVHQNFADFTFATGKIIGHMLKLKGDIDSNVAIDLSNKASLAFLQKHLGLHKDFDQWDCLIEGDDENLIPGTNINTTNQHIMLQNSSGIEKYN
- Measurement notes: (3a) Lp-PLA2 human plasma Thio-PAF assay
- Assay type: biochemical
- Recorded conditions: (3a) Thio-PAF assay, pooled human plasma; Examples 1-265 and 413-430 were tested here; read-out: pIC50 in the Lp-PLA2 human plasma assay (converted)

[
  {
    "Compound": "O=c1nc(OCc2cc(F)c(Oc3ccnc(C(F)(F)F)c3)c(F)c2)cc2n1CC1CCCCN21 (stereo not drawn) [Example E37]",
    "IC50": "≤ 100 nM"
  },
  {
    "Compound": "O=c1nc(OCc2cccc(F)c2F)cc2n1C[C@@H]1CCCCN21",
    "IC50": "≤ 10000 nM"
  },
  {
    "Compound": "O=c1nc(OCc2cc(F)c(Oc3ccnc(C(F)(F)F)c3)c(F)c2)cc2n1CC1CCCCN21 (stereo not drawn) [Example E45]",
    "IC50": "≤ 100 nM"
  },
  {
    "Compound": "CN1c2cc(OCc3ccc(F)cc3F)nc(=O)n2CC12CCCCC2",
    "IC50": "≤ 10000 nM"
  },
  {
    "Compound": "CCCCN1CC(Oc2c(F)cc(COc3cc4n(c(=O)n3)CC3CCCN43)cc2F)C1 (stereo not drawn)",
    "IC50": "≤ 10000 nM"
  },
  {
    "Compound": "O=c1nc(OCc2cc(F)c(Oc3cncc(C(F)(F)F)c3)c(F)c2)cc2n1CC1CCCCN21 (stereo not drawn)",
    "IC50": "≤ 100 nM"
  },
  {
    "Compound": "O=c1nc(OCc2cc(F)c(Oc3ccnc(C(F)(F)F)c3)c(F)c2)cc2n1C[C@@H]1COCCN21",
    "IC50": "≤ 100 nM"
  },
  {
    "Compound": "N#Cc1cc(Oc2ccc(COc3cc4n(c(=O)n3)CC3CCCCN43)cc2F)cc(C(F)(F)F)c1 (stereo not drawn)",
    "IC50": "≤ 100 nM"
  },
  {
    "Compound": "O=c1nc(OCCc2cccc(F)c2)cc2n1C[C@H]1COCN21",
    "IC50": "≤ 10000 nM"
  },
  {
    "Compound": "O=c1nc(OCc2ccc(Oc3ccc(F)c(C(F)(F)F)c3)nc2)cc2n1C[C@@H]1CCCN21",
    "IC50": "≤ 10000 nM"
  },
  {
    "Compound": "O=c1nc(OCc2cccc(F)c2F)cc2n1C[C@@H]1COCCN21 [Example E131]",
    "IC50": "≤ 100 nM"
  },
  {
    "Compound": "CCn1cc(Oc2c(F)cc(COc3cc4n(c(=O)n3)CC3COCCN43)cc2F)cn1 (stereo not drawn)",
    "IC50": "≤ 100 nM"
  }
]
